- assayed-system: acetylcholinesterase (AChE) (Homo sapiens, UniProt P22303)
- Construct: purchased Sigma-Aldrich
- Sequence (P22303 32-614): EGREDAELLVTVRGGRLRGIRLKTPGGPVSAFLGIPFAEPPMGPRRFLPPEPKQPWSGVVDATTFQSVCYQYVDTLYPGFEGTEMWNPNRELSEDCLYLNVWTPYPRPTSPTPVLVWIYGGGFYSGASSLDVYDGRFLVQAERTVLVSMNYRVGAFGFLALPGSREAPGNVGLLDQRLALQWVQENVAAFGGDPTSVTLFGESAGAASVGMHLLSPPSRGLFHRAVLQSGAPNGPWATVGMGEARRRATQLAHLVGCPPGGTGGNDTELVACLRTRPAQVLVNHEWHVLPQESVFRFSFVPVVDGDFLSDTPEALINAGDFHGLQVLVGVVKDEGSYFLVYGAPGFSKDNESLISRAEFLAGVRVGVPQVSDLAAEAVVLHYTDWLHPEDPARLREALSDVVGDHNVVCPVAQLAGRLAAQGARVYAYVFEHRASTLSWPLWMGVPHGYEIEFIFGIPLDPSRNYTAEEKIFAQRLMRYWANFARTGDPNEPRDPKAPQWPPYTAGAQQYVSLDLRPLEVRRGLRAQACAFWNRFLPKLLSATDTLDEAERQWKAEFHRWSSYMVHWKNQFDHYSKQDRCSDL
- assay-details: biochemical
- conditions-used: pure compounds; read-out: AchE Inhibitory Assay IC50 (converted)
Measured IC50, listed per entry for reference.
Field format: number, assumed µM, no unit text.

Please review the following examples before continuing.
O=c1c2cc(O)c(O)cc2oc2c([C@@H]3O[C@H](CO)[C@@H](O)[C@H](O)[C@H]3O)c(O)cc(O)c12; 227
O=c1c2cc(O)c(O)cc2oc2cc(O)c([C@@H]3O[C@H](CO)[C@@H](O)[C@H](O)[C@H]3O)c(O)c12; 161
C[C@H]1CC[C@@]2(OC1)O[C@H]1C[C@H]3[C@@H]4CC[C@@H]5C[C@@H](O[C@@H]6O[C@H](CO)[C@H](O)[C@H](O)[C@H]6O[C@@H]6O[C@H](CO)[C@@H](O)[C@H](O)[C@H]6O)CC[C@]5(C)[C@H]4CC[C@]3(C)[C@H]1[C@@H]2C; 179

Okay, now this compound:
So for "O=c1c2cc(O[C@@H]3O[C@H](CO)[C@@H](O)[C@H](O)[C@H]3O)c(O)cc2oc2cc(O)c([C@@H]3O[C@H](CO)[C@@H](O)[C@H](O)[C@H]3O)c(O)c12" , the logged IC50 turned out to be 121

====

- assay-details: ABTS radical scavenging assay
- conditions-used: isolated components
Measured ABTS IC50, listed per entry for reference.

Please review the following examples before continuing.
C[C@H]1CC[C@@]2(OC1)O[C@H]1C[C@H]3[C@@H]4CC[C@@H]5C[C@@H](O[C@@H]6O[C@H](CO)[C@H](O)[C@H](O)[C@H]6O[C@@H]6O[C@H](CO)[C@@H](O)[C@H](O)[C@H]6O)CC[C@]5(C)[C@H]4CC[C@]3(C)[C@H]1[C@@H]2C; >200 µg/mL
O=c1c2cc(O)c(O)cc2oc2cc(O)c([C@@H]3O[C@H](CO)[C@@H](O)[C@H](O)[C@H]3O)c(O)c12; 3.7 ± 0.2 µg/mL
O=c1c2cc(O[C@@H]3O[C@H](CO)[C@@H](O)[C@H](O)[C@H]3O)c(O)cc2oc2cc(O)c([C@@H]3O[C@H](CO)[C@@H](O)[C@H](O)[C@H]3O)c(O)c12; 81.9 ± 4.6 µg/mL
Cc1cc(C(C)(C)C)c(O)c(C(C)(C)C)c1 [BHT, Butylated hydroxytoluene, reference compound]; 15.4 ± 0.9 µg/mL

Okay, now this compound:
So for "O=c1c2cc(O)c(O)cc2oc2c([C@@H]3O[C@H](CO)[C@@H](O)[C@H](O)[C@H]3O)c(O)cc(O)c12" , the logged ABTS IC50 turned out to be 5.6 ± 0.4 µg/mL

====

- assay-details: Ferric-reducing antioxidant power (FRAP) assay
- conditions-used: Trolox equivalents per gram; isolated components
Binary classification by FRAP (TE), with 6000 mM/g as an inclusive lower bound for yes (1); all other cases are no (0).

O=c1c2cc(O[C@@H]3O[C@H](CO)[C@@H](O)[C@H](O)[C@H]3O)c(O)cc2oc2cc(O)c([C@@H]3O[C@H](CO)[C@@H](O)[C@H](O)[C@H]3O)c(O)c12; no (0)
C[C@H]1CC[C@@]2(OC1)O[C@H]1C[C@H]3[C@@H]4CC[C@@H]5C[C@@H](O[C@@H]6O[C@H](CO)[C@H](O)[C@H](O)[C@H]6O[C@@H]6O[C@H](CO)[C@@H](O)[C@H](O)[C@H]6O)CC[C@]5(C)[C@H]4CC[C@]3(C)[C@H]1[C@@H]2C; no (0)
Cc1cc(C(C)(C)C)c(O)c(C(C)(C)C)c1 [BHT, Butylated hydroxytoluene, reference compound]; no (0)
O=c1c2cc(O)c(O)cc2oc2c([C@@H]3O[C@H](CO)[C@@H](O)[C@H](O)[C@H]3O)c(O)cc(O)c12; yes (1)

We now examine a further compound.
Could you tell me if the measured FRAP (TE) of "O=c1c2cc(O)c(O)cc2oc2cc(O)c([C@@H]3O[C@H](CO)[C@@H](O)[C@H](O)[C@H]3O)c(O)c12" reaches 6000 mM/g or more?
yes (1)
